# target-or-test-system: Dimer of Gag-Pol polyprotein [501-599] (Human immunodeficiency virus 1)
# Construct: 501-599
# test-description: Protease Inhibition Assay
# cond: pH 4.7
Below, each of the compounds is paired with its reported pKi value.
Recall that pKi is obtained by taking minus log10 of the concentration measured in molar.

{"smiles-record": "CC(C)(C)OC(=O)N[C@@H](Cc1ccccc1)[C@@H](O)CN[C@@H](Cc1ccccc1)C(=O)N[C@@H](CCC(=O)O)C(=O)N[C@@H](Cc1ccccc1)C(N)=O", "reported-result": 9.82}

Please report the recorded pKi for CC(C)(C)OC(=O)N[C@@H](Cc1ccccc1)[C@@H](O)CN[C@@H](Cc1ccccc1)C(=O)N[C@@H](CCC(N)=O)C(=O)N[C@@H](Cc1ccccc1)C(N)=O .
7.48
